Recorded values, source the supplement of paper PMC10567573.

Give measured protein stability index for each item. Keep answers brief.
B1: ZNF8 (parent)
chain: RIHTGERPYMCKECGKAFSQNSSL

Variants of: B1
method: protein stability index of a GFP-peptide fusion (GPS, HEK-293T) (PSI 1-6); higher = more stable;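 further: lentivirally expressed fusions sorted by FACS into six bins by GFP to DsRed ratio, PSI derived from sequencing read proportions per bin multiplied by bin number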
statedConditions: c terminus: a fixed tail appended
Numbers only.

Worked examples, 3 variants total:
INSERT INTO results (variantlabel, measure, readoutvalue) VALUES
  ('Q20L', 'protein stability index', 2.1),
  ('G5V', 'protein stability index', 2.04),
  ('E6C', 'protein stability index', 1.68);

For every record below, what is its protein stability index?
1. R7F
2. E6T
3. R7G
4. G5C
5. K16R
6. K12Y

*A*
[2.99, 2.36, 3.23, 3.78, 2.3, 2.27]
